- Test system: T24
- method_notes: MTT cytotoxicity, 48 h
- Format: cell-based, human
- applied_conditions: MTT
recorded_endpoint: log10 of GI50 (log10 of the value in µM)
The common logarithm of GI50 in µM is what is listed.

Recorded log10 of GI50, per entry:
CC(C)C[n+]1ccn2[c]1[Ir-3]13([c]4ccccc4-c4cccc[n+]41)([c]1ccccc1-c1cccc[n+]13)[c]1n(cc[n+]1CC(C)C)CC2.F[P-](F)(F)(F)(F)F [Complex 4f] :: -0.04
F[P-](F)(F)(F)(F)F.c1ccc(C[n+]2ccn3[c]2[Ir-3]24([c]5ccccc5-c5cccc[n+]52)([c]2ccccc2-c2cccc[n+]24)[c]2n(cc[n+]2Cc2ccccc2)CC3)cc1 [Complex 4e] :: -0.54
CC(C)[n+]1ccn2[c]1[Ir-3]13([c]4ccccc4-c4cccc[n+]41)([c]1ccccc1-c1cccc[n+]13)[c]1n(cc[n+]1C(C)C)C2.F[P-](F)(F)(F)(F)F [Complex 4a] :: -0.51
CSc1ccc(-[n+]2ccn3[c]2[Ir-3]24([c]5ccccc5-c5cccc[n+]52)([c]2ccccc2-c2cccc[n+]24)[c]2n(cc[n+]2-c2ccc(SC)cc2)C3)cc1.F[P-](F)(F)(F)(F)F [Complex 4d] :: -0.02

Item: F[P-](F)(F)(F)(F)F.c1ccc(C[n+]2ccn3[c]2[Ir-3]24([c]5ccccc5-c5cccc[n+]52)([c]2ccccc2-c2cccc[n+]24)[c]2n(cc[n+]2Cc2ccccc2)C3)cc1 [Complex 4c] | log10 of GI50: -0.37

Item: CC(C)C[n+]1ccn2[c]1[Ir-3]13([c]4ccccc4-c4cccc[n+]41)([c]1ccccc1-c1cccc[n+]13)[c]1n(cc[n+]1CC(C)C)C2.F[P-](F)(F)(F)(F)F [Complex 4b] | log10 of GI50: -0.42

Item: c1cc[c]2c(c1)-c1cccc[n+]1[Ir-3]213([Cl+][Ir-3]24([Cl+]1)([c]1ccccc1-c1cccc[n+]12)[c]1ccccc1-c1cccc[n+]14)[c]1ccccc1-c1cccc[n+]13 [[IrCl(ppy)2]2, reference compound] | log10 of GI50: 1.17

* * *

- Test system: T24 bladder cancer cells
- method_notes: MTT cell viability, 72 h, dark or 458 nm irradiation
- Type: cell-based, human
- applied_conditions: dark; GI50 NIH-3T3 / GI50 T24
recorded_endpoint: SI vs NIH, T24 Dark
Quick one: just the number, no unit, thanks!

Recorded SI vs NIH, T24 Dark, per entry:
CSc1ccc(-[n+]2ccn3[c]2[Ir-3]24([c]5ccccc5-c5cccc[n+]52)([c]2ccccc2-c2cccc[n+]24)[c]2n(cc[n+]2-c2ccc(SC)cc2)C3)cc1.F[P-](F)(F)(F)(F)F :: 4.7
c1cc[c]2c(c1)-c1cccc[n+]1[Ir-3]213([Cl+][Ir-3]24([Cl+]1)([c]1ccccc1-c1cccc[n+]12)[c]1ccccc1-c1cccc[n+]14)[c]1ccccc1-c1cccc[n+]13 [[IrCl(ppy)2]2, reference compound] :: 1.5

Item: F[P-](F)(F)(F)(F)F.c1ccc(C[n+]2ccn3[c]2[Ir-3]24([c]5ccccc5-c5cccc[n+]52)([c]2ccccc2-c2cccc[n+]24)[c]2n(cc[n+]2Cc2ccccc2)C3)cc1 | SI vs NIH, T24 Dark: 7.6

Item: CC(C)[n+]1ccn2[c]1[Ir-3]13([c]4ccccc4-c4cccc[n+]41)([c]1ccccc1-c1cccc[n+]13)[c]1n(cc[n+]1C(C)C)C2.F[P-](F)(F)(F)(F)F | SI vs NIH, T24 Dark: 12.7

Item: CC(C)C[n+]1ccn2[c]1[Ir-3]13([c]4ccccc4-c4cccc[n+]41)([c]1ccccc1-c1cccc[n+]13)[c]1n(cc[n+]1CC(C)C)C2.F[P-](F)(F)(F)(F)F | SI vs NIH, T24 Dark: 7.5

* * *

- method_notes: Photophysical measurements (emission, quantum yield, lifetime) in CH2Cl2
- Assay type: physicochemical
- applied_conditions: CH2Cl2, 298 K, references POPOP and quinine sulfate
recorded_endpoint: ΦPL emission quantum yield (%)
Please give a number only; it is taken to be in %.

F[P-](F)(F)(F)(F)F.c1ccc(C[n+]2ccn3[c]2[Ir-3]24([c]5ccccc5-c5cccc[n+]52)([c]2ccccc2-c2cccc[n+]24)[c]2n(cc[n+]2Cc2ccccc2)CC3)cc1 :: 0.2
CC(C)[n+]1ccn2[c]1[Ir-3]13([c]4ccccc4-c4cccc[n+]41)([c]1ccccc1-c1cccc[n+]13)[c]1n(cc[n+]1C(C)C)C2.F[P-](F)(F)(F)(F)F :: 1.2

Next item in the queue.
Item: F[P-](F)(F)(F)(F)F.c1ccc(C[n+]2ccn3[c]2[Ir-3]24([c]5ccccc5-c5cccc[n+]52)([c]2ccccc2-c2cccc[n+]24)[c]2n(cc[n+]2Cc2ccccc2)C3)cc1 | ΦPL emission quantum yield: 1.6

* * *

- Test system: T24 bladder cancer cells
- method_notes: MTT cell viability, 72 h, dark or 458 nm irradiation
- Assay type: cell-based, human
- applied_conditions: 458 nm irradiation 10 min, 72 h, MTT; read-out: GI50 T24 Blue
Recorded GI50 by entry
Provide the measurement as a number trailed by its unit.

Recorded GI50, per entry:
c1cc[c]2c(c1)-c1cccc[n+]1[Ir-3]213([Cl+][Ir-3]24([Cl+]1)([c]1ccccc1-c1cccc[n+]12)[c]1ccccc1-c1cccc[n+]14)[c]1ccccc1-c1cccc[n+]13 [[IrCl(ppy)2]2, reference compound] :: 22000 nM
CSc1ccc(-[n+]2ccn3[c]2[Ir-3]24([c]5ccccc5-c5cccc[n+]52)([c]2ccccc2-c2cccc[n+]24)[c]2n(cc[n+]2-c2ccc(SC)cc2)C3)cc1.F[P-](F)(F)(F)(F)F [Complex 4d] :: 165 nM
CC(C)[n+]1ccn2[c]1[Ir-3]13([c]4ccccc4-c4cccc[n+]41)([c]1ccccc1-c1cccc[n+]13)[c]1n(cc[n+]1C(C)C)C2.F[P-](F)(F)(F)(F)F [Complex 4a] :: 82 nM
CC(C)C[n+]1ccn2[c]1[Ir-3]13([c]4ccccc4-c4cccc[n+]41)([c]1ccccc1-c1cccc[n+]13)[c]1n(cc[n+]1CC(C)C)C2.F[P-](F)(F)(F)(F)F [Complex 4b] :: 90 nM

Item: F[P-](F)(F)(F)(F)F.c1ccc(C[n+]2ccn3[c]2[Ir-3]24([c]5ccccc5-c5cccc[n+]52)([c]2ccccc2-c2cccc[n+]24)[c]2n(cc[n+]2Cc2ccccc2)C3)cc1 [Complex 4c] | GI50: 91 nM

* * *

- Test system: MCF7/FasR breast cancer cells
- method_notes: MTT cell viability, 72 h, dark or 458 nm irradiation
- Format: cell-based, human
- applied_conditions: blue light; GI50 NIH-3T3 / GI50 MCF7
recorded_endpoint: SI vs NIH, MCF7 Blue
Quick one: just the number, no unit, thanks!

F[P-](F)(F)(F)(F)F.c1ccc(C[n+]2ccn3[c]2[Ir-3]24([c]5ccccc5-c5cccc[n+]52)([c]2ccccc2-c2cccc[n+]24)[c]2n(cc[n+]2Cc2ccccc2)C3)cc1 [Complex 4c] :: 43.8
CC(C)[n+]1ccn2[c]1[Ir-3]13([c]4ccccc4-c4cccc[n+]41)([c]1ccccc1-c1cccc[n+]13)[c]1n(cc[n+]1C(C)C)C2.F[P-](F)(F)(F)(F)F [Complex 4a] :: 55.8
CC(C)C[n+]1ccn2[c]1[Ir-3]13([c]4ccccc4-c4cccc[n+]41)([c]1ccccc1-c1cccc[n+]13)[c]1n(cc[n+]1CC(C)C)C2.F[P-](F)(F)(F)(F)F [Complex 4b] :: 28.7

Item: CSc1ccc(-[n+]2ccn3[c]2[Ir-3]24([c]5ccccc5-c5cccc[n+]52)([c]2ccccc2-c2cccc[n+]24)[c]2n(cc[n+]2-c2ccc(SC)cc2)C3)cc1.F[P-](F)(F)(F)(F)F [Complex 4d] | SI vs NIH, MCF7 Blue: 23.8

* * *

- System: PC-3 prostate cancer cells
- method_notes: MTT cell viability, 72 h, dark or 458 nm irradiation
- Type: cell-based, human
- applied_conditions: dark; GI50 NIH-3T3 / GI50 PC-3
recorded_endpoint: SI vs NIH, PC-3 Dark

Item: CSc1ccc(-[n+]2ccn3[c]2[Ir-3]24([c]5ccccc5-c5cccc[n+]52)([c]2ccccc2-c2cccc[n+]24)[c]2n(cc[n+]2-c2ccc(SC)cc2)C3)cc1.F[P-](F)(F)(F)(F)F [Complex 4d] | SI vs NIH, PC-3 Dark: 4.6

Item: c1cc[c]2c(c1)-c1cccc[n+]1[Ir-3]213([Cl+][Ir-3]24([Cl+]1)([c]1ccccc1-c1cccc[n+]12)[c]1ccccc1-c1cccc[n+]14)[c]1ccccc1-c1cccc[n+]13 [[IrCl(ppy)2]2, reference compound] | SI vs NIH, PC-3 Dark: 1.4

* * *

- Tested on: T24 bladder cancer cells
- method_notes: MTT cell viability, 72 h, dark or 458 nm irradiation
- Format: cell-based, human
- applied_conditions: blue light; GI50 MC3T3 / GI50 T24
Recorded SI vs MC3T3, T24 Blue by entry
Quick one: just the number, no unit, thanks!

Recorded SI vs MC3T3, T24 Blue, per entry:
CSc1ccc(-[n+]2ccn3[c]2[Ir-3]24([c]5ccccc5-c5cccc[n+]52)([c]2ccccc2-c2cccc[n+]24)[c]2n(cc[n+]2-c2ccc(SC)cc2)C3)cc1.F[P-](F)(F)(F)(F)F [Complex 4d] :: 10.9
CC(C)[n+]1ccn2[c]1[Ir-3]13([c]4ccccc4-c4cccc[n+]41)([c]1ccccc1-c1cccc[n+]13)[c]1n(cc[n+]1C(C)C)C2.F[P-](F)(F)(F)(F)F [Complex 4a] :: 21.2

Item: CC(C)C[n+]1ccn2[c]1[Ir-3]13([c]4ccccc4-c4cccc[n+]41)([c]1ccccc1-c1cccc[n+]13)[c]1n(cc[n+]1CC(C)C)C2.F[P-](F)(F)(F)(F)F [Complex 4b] | SI vs MC3T3, T24 Blue: 7.7

Item: F[P-](F)(F)(F)(F)F.c1ccc(C[n+]2ccn3[c]2[Ir-3]24([c]5ccccc5-c5cccc[n+]52)([c]2ccccc2-c2cccc[n+]24)[c]2n(cc[n+]2Cc2ccccc2)C3)cc1 [Complex 4c] | SI vs MC3T3, T24 Blue: 14.6
